TEST: physchem
Assay type: physicochemical
CONDITION SET: water
Counter-ions that a name gives are not always drawn.

COMPOUND | solubility, mg/mL
CC(C)(Cc1c[nH]c2ccccc12)NCC(O)COc1ccccc1C#N (stereo not drawn) | 257
COc1ccc([C@@H]2Sc3ccccc3N(CCN(C)C)C(=O)[C@@H]2OC(C)=O)cc1 [compound 8403, Diltiazem HCl] | 1200
C[C@]12C=CC(=O)C=C1CC[C@@H]1[C@@H]2C(=O)C[C@@]2(C)[C@H]1CC[C@]2(O)C(=O)CO | 0.1

Data origin: patent US20100196475A1
